System: CAMK2A
EXPERIMENTAL SETUP: concentration: 1 μM,replicates: in singlicate; n = 1;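 also: KINOMEscan kinase panel screen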
Each entry below carries its recorded %Inh.
Answer with the value and then the unit.

Study these solved cases before continuing.
COc1cc2c(Nc3ccc(NC(=O)c4ccccc4)cc3)ncnc2cc1OCCCN1CCOCC1 [GSK301329] :: 0%
Cn1ccc2ncnc(Oc3ccc(NC(=O)Nc4cc(C(C)(C)C)on4)c(Cl)c3)c21 :: 100%
CNC(=O)c1ccccc1Nc1nc(Nc2cccc(CS(C)(=O)=O)c2)ncc1C.O=CO [GSK1520489] :: 1%
CC(=O)Nc1nc2cnc(Nc3cc(NC(=O)c4cccc(CC(C)(C)C#N)c4)ccc3C)nc2s1 :: 0%
C[C@@H]1CNc2c(sc3ccc4nc(-c5ccc(O)cc5)ccc4c23)C(=O)N1 :: 35%
CSc1nccc(-c2c(-c3ccc(F)cc3)ncn2CCCN2CCOCC2)n1.Cl [SB-217146] :: 0%
O=C(Nc1cccc(C(F)(F)F)c1)c1cccc(Oc2ccc3nccn3n2)c1 :: 0%
Cl.Nc1n[nH]c2cc(-c3ccccn3)ccc12 [GSK2189892] :: 0%
CC(C)S(=O)(=O)N1CCN(Cc2ccc3c(c2)nc(NC(=O)c2ccsc2)n3C[C@H](O)c2ccccc2)CC1 [GW635815] :: 0%
COc1cccc(CNC(=O)NC2CCN(c3ccnc(Nc4cc(OC)c(OC)c(OC)c4)n3)C2)c1 (centres unmarked) [GSK1379765] :: 0%

// %Inh lookup, key: COC(=O)c1cccc(NC(=O)NC2CCN(c3ccnc(Nc4cc(OC)c(OC)c(OC)c4)n3)C2)c1 (centres unmarked) [GSK1379767]
0%

Repeat for the following compound: CC(C)c1nc(-c2cccc(NS(=O)(=O)c3ccccc3)c2)c(-c2ccnc(Nc3ccc4c(c3)CN(C)CC4)n2)s1 [GSK1649598]
0%

Repeat for the following compound: CCNCC(Cc1ccccc1)NC(=O)c1cc(Br)c(-c2ccnc3[nH]ccc23)s1.Cl.Cl (centres unmarked) [GSK1383280]
0%

---

Tested on: ULK2
EXPERIMENTAL SETUP: concentration: 1 μM,replicates: in singlicate; n = 1
VALUE TYPE: %Inh (%)
A number alone suffices; assume %.

Study these solved cases before continuing.
CC(C(=O)NC1CCN(c2ccnc(Nc3ccc(F)cc3)n2)C1)c1ccc(Cl)cc1 (stereo not shown) :: 0
CS(=O)(=O)c1cccc(CNc2nc(Nc3ccc4c(c3)[C@@H]3C[C@@H]4CNC3=O)ncc2C(F)(F)F)c1 :: 77
CS(=O)c1ccc(-c2coc3ccc(-c4n[nH]c(=O)o4)cc23)cc1 (stereo not shown) :: 0

Now, please, on to the next compound.
// %Inh lookup, key: O=C(Nc1ccc(Oc2ccc3nc(NC(=O)C4CC4)cn3n2)c(F)c1)c1cccn(-c2ccccc2)c1=O
0

---

Each entry below carries its recorded %Inh.
Tested on: DCAMKL2
Construct: gene DCLK2
EXPERIMENTAL SETUP: concentration: 1 μM,replicates: in singlicate; n = 1
A number alone suffices; assume %.

Study these solved cases before continuing.
Cn1ccc2ncnc(Oc3ccc(NC(=O)Nc4cccc(C(F)(F)F)c4)c(Cl)c3)c21 :: 0
CS(=O)(=O)Nc1ccc(-c2ccnc3[nH]ccc23)cc1 [GSK993273] :: 0
Cn1ccc2ncnc(Oc3ccc(NC(=O)Nc4cc(C(C)(C)C)on4)c(Cl)c3)c21 :: 15

Now, please, on to the next compound.
// %Inh lookup, key: Cl.Cl.NC[C@H](CC1CCCCC1)NC(=O)c1ccc(-c2ccnc3[nH]ccc23)s1 [GSK1581428]
17

Origin of values: paper PMC5540273
